B1: Intersectin-1, residues 1156 to 1213; numbered along this chain, Q15811 (parent)
chain: AVCQVIGMYDYTAQNDDELAFNKGQIINVLNKEDPDWWKGEVNGQVGLFPSNYVKLTT

Variants of: B1
Assay: abundance fitness (aPCA) (normalised: wild type 0, dead -1); higher = more abundant; growth selection in yeast, the domain comes from the species named
Conditions: Homo sapiens
Classify by measured abundance fitness: Fulfilled if it is equal to or exceeds -0.4, Not fulfilled if it is smaller.

Previously resolved entries follow.
mutant id: W38Q
label class: Not fulfilled
--
mutant id: L30C
label class: Not fulfilled
--
mutant id: Q14E
label class: Fulfilled
--
mutant id: K32S
label class: Fulfilled
--
mutant id: Q14H
label class: Not fulfilled
--
mutant id: L56R
label class: Fulfilled
--
mutant id: Y53I
label class: Fulfilled
--
mutant id: V5Y
label class: Fulfilled

**Q:** Dear colleague, could you confirm whether I6Q has abundance fitness at or above -0.4?
**A:** Fulfilled

**Q:** Moving on to the next variant: D36N
**A:** Fulfilled

**Q:** What do we get for M8L ?
**A:** Fulfilled

**Q:** Now the same for N15Q
**A:** Fulfilled
